Origin of the recorded values: ChEMBL document CHEMBL3098077

- System: DU-145
- ASSAY PROTOCOL: Cytotoxicity against human DU145 cells by SRB assay
- Format: functional
We begin with a simple list: items and their reported GI50.
Only the number, expressed in nM, is required.

The examples below pair each entry with its known result.
- MOLECULAR STRING: "CCOC(=O)/C(C#N)=C/c1ccccc1-c1c(/C=C(\\C#N)C(=O)OCC)cc(OC)c(OC)c1OC"
  GI50, nM: 8080
- MOLECULAR STRING: "COc1cc(/C=C/[N+](=O)[O-])c(-c2ccccc2/C=C/[N+](=O)[O-])c(OC)c1OC"
  GI50, nM: 2090

Would you kindly look at the next entry?
Field GI50 (entry `CC(=O)O[C@H]1C(=O)[C@@]2(C)[C@H]([C@H](OC(=O)c3ccccc3)[C@]3(O)C[C@H](OC(=O)[C@H](O)[C@@H](NC(=O)c4ccccc4)c4ccccc4)C(C)=C1C3(C)C)[C@]1(OC(C)=O)CO[C@@H]1C[C@@H]2O` ) reads 6
